test system: M14; assay: NCI tumour cell line growth inhibition, 48 h
The source made the active and inactive calls. No stated cut-off is given here; in the data, active = GI50 up to about 1.1 µM and inactive = higher.
quantityKind: GI50

q: Identify measured GI50 corresponding to `CCCCC#C[I+]c1ccccc1`
a: 15.5 µM (inactive)

q: Identify measured GI50 corresponding to CC1CN=C(Nc2ccccc2)S1 (configuration not stated)
a: > 100 µM (inactive)

q: Identify measured GI50 corresponding to CCN1C[C@]2(C)CC[C@H](OC)C34C5C[C@@H]6[C@@H](OC)C[C@@](OC)(C5[C@H]6OCc5ccccc5)C(C13)[C@H](OC(C)=O)[C@@H]42 (some centres not stated)
a: 97.1 µM (inactive)

q: Identify measured GI50 corresponding to `CC(C)(Br)C(=O)/C=C/c1ccccc1`
a: 1.56 µM (inactive)

q: Identify measured GI50 corresponding to `O=c1oc2ccc(Cl)cc2cc1-c1cn2cc(Cl)ccc2n1`
a: 4.46 µM (inactive)

q: Identify measured GI50 corresponding to O=C1NC(=O)C2=C1CCC2O (configuration not stated)
a: > 100 µM (inactive)

q: Identify measured GI50 corresponding to `N=c1c2c3n(c4c(=O)n(-c5ccccc5)c(=S)n(c(=O)n1-c1ccccc1)c24)CCCCC3`
a: > 100 µM (inactive)

q: Identify measured GI50 corresponding to `CSc1nc(SC)c2c(C)cn(COCCOC(=O)c3ccccc3)c2n1`
a: > 100 µM (inactive)

q: Identify measured GI50 corresponding to `O=[N+]([O-])c1cccc(-c2nc(-c3ccccc3)c(-c3ccccc3)[nH]2)c1`
a: > 100 µM (inactive)

q: Identify measured GI50 corresponding to `CO/N=C(\C)c1cccc(Nc2nc3ccccc3c3occc23)c1`
a: 16.7 µM (inactive)

q: Identify measured GI50 corresponding to `Cc1[nH]n(-c2nc(-c3ccccc3)cc(=O)[nH]2)c(=O)c1CCO`
a: > 100 µM (inactive)

q: Identify measured GI50 corresponding to `COc1cccc2nc3ccccc3nc12`
a: > 100 µM (inactive)

====

test system: OVCAR-4; assay: NCI tumour cell line growth inhibition, 48 h
Calls of active or inactive are those of the source. No stated cut-off is given here; in the data, active = GI50 up to about 1.1 µM and inactive = higher.
Answer each item with its documented GI50.

q: Identify measured GI50 corresponding to N=C(N)N/N=C(/CCN1CCCC1)CC(c1ccccc1)c1c(O)c2ccccc2oc1=O (stereo not given)
a: > 100 µM (inactive)

q: Identify measured GI50 corresponding to `Cc1ccccc1NC(=O)CSc1nnc(-c2ccc(/N=C\c3ccc(Cl)cc3)cc2)o1`
a: > 100 µM (inactive)

q: Identify measured GI50 corresponding to `COc1cc(Nc2cnc3cc(F)c(F)cc3n2)cc(OC)c1OC`
a: > 100 µM (inactive)

q: Identify measured GI50 corresponding to `Oc1cc(-c2cccc(Br)c2)nc2cc3c(cc12)OCO3`
a: > 30.8 µM (inactive)

q: Identify measured GI50 corresponding to `Cn1c(=O)n2c(-c3ccccc3)c(-c3ccccc3)n2c1=O`
a: > 100 µM (inactive)

q: Identify measured GI50 corresponding to O=C1C(Cl)N(c2cccc([N+](=O)[O-])c2)C1c1c[nH]c2ccccc12 (stereo not given)
a: 18.1 µM (inactive)

q: Identify measured GI50 corresponding to CC1CN=C(N(C)C(=O)Nc2ccc(Cl)cc2)S1 (stereo not given)
a: 65.2 µM (inactive)

q: Identify measured GI50 corresponding to Cc1ccc(S(=O)OC2c3ccccc3Cc3ccccc32)cc1 (stereo not given)
a: 17.8 µM (inactive)

q: Identify measured GI50 corresponding to `Cc1cc(NS(=O)(=O)c2ccc(NC(=O)c3cccc4cc5ccccc5nc34)cc2)no1`
a: 18.3 µM (inactive)

q: Identify measured GI50 corresponding to O=C(OC1C#CCSCC#C/C=C\1)c1ccc2c(c1)C(=O)c1ccccc1C2=O (stereo not given)
a: > 100 µM (inactive)

q: Identify measured GI50 corresponding to `N#C/C(=C\c1ccccc1)C(=O)Nc1nnc(-c2ccccc2)o1`
a: 32.4 µM (inactive)

q: Identify measured GI50 corresponding to `CN1CCN(C(=S)N(C(=O)c2cccs2)c2ccccc2)CC1`
a: > 100 µM (inactive)

q: Identify measured GI50 corresponding to `COC(=O)c1ccc(C)cc1/C=C1\Cc2ccc(C)cc2C1=O`
a: 14.4 µM (inactive)

q: Identify measured GI50 corresponding to OCC1OC(c2nc(C3=NCCCN3)cs2)C(O)C1O (stereo not given)
a: > 100 µM (inactive)

q: Identify measured GI50 corresponding to `O=C(CCc1nnc(S)[nH]1)Nc1cccc(C(F)(F)F)c1`
a: > 100 µM (inactive)

q: Identify measured GI50 corresponding to `CCN(CC)CCCNc1n[n+]([O-])c2ccccc2[n+]1[O-]`
a: 23.7 µM (inactive)

q: Identify measured GI50 corresponding to `Oc1ccc2ccccc2c1/N=N/c1cc(Cl)ccc1Cl`
a: 13.9 µM (inactive)

q: Identify measured GI50 corresponding to `O=c1oc2c3ccc4ccccc4c3n(CCN3CCCCC3)c2c2ccccc12`
a: 23.8 µM (inactive)

q: Identify measured GI50 corresponding to CC(=O)Nc1ccc(C(=O)NN2C(=O)C(Cl)C2c2cc(Br)cc(Br)c2O)cc1 (stereo not given)
a: > 100 µM (inactive)

q: Identify measured GI50 corresponding to `COC(=O)c1ccc(/N=N/N(C)CO)cc1`
a: 55.8 µM (inactive)

====

system: SN12C; assay: NCI tumour cell line growth inhibition, 48 h
Active and inactive are the calls of the source. Cut-off read from the data, not from the text of the source: active = GI50 up to about 1.1 µM and inactive = higher.
Respond only with the outcome that fits, drawn from 1 for active, -1 for inactive

q: What call does the record list for CC(C)CCC[C@@H](C)[C@H]1CC[C@H]2[C@@H]3CC=C4CC(OCCCCN(O)CCCSC5OC(CO)C(O)C(O)C5O)CC[C@]4(C)[C@H]3CC[C@]12C (stereo partly drawn) ?
a: -1

q: What call does the record list for `O=[N+]([O-])c1cccc(-c2cn3c(n2)Cc2ccccc2C3)c1` ?
a: -1

q: What call does the record list for `O=C(CCc1nnc(S)[nH]1)Nc1cccc(C(F)(F)F)c1` ?
a: -1

q: What call does the record list for CC(C)c1cccc(C(C)C)c1NC(=O)C(=O)C1SC(=S)NC1=O (stereo not drawn) ?
a: -1

q: What call does the record list for `Nc1nc(=O)c(/N=N/c2ccc([As](=O)(O)O)cc2)c(N)[nH]1` ?
a: -1

q: What call does the record list for C=C1CC2(C[C@@H](c3ccccc3)O[C@@H](c3ccccc3)C2)OC1=O (stereo partly drawn) ?
a: -1

q: What call does the record list for CCC1OC2(C)CC(C#N)(C#N)C1(C#N)C(=N)O2 (stereo not drawn) ?
a: -1

q: What call does the record list for `O=C1CC2(CCNCC2)C(=O)N1N1CCCCC1` ?
a: -1

q: What call does the record list for `COC(=O)c1ccc(C)cc1/C=C1\Cc2ccc(C)cc2C1=O` ?
a: -1

q: What call does the record list for `CC(C)(Br)C(=O)/C=C/c1ccccc1` ?
a: -1

q: What call does the record list for C#CCOCC12C=CC(O1)C1C(=O)N(C)C(=O)C12 (stereo not drawn) ?
a: -1

q: What call does the record list for `CC(=O)OCCOCNC(=S)N/N=C/c1ccc2ccccc2n1` ?
a: -1

q: What call does the record list for `C=CCOC(=O)C1=C(CCC[C@@H](C)O[Si](C)(C)C(C)(C)C)N=C(N)N2[C@H](CCO)CC[C@@H]12` ?
a: -1

q: What call does the record list for C=C1CCCC2OC(OC)CCC12 (stereo not drawn) ?
a: -1

q: What call does the record list for O=C1NN=C(c2c[nH]c3ccccc23)CC1NCc1ccccc1 (stereo not drawn) ?
a: -1

q: What call does the record list for C[C@@H]1[C@@H](C)C(c2ccccc2)O[Si]1(C(C)(C)C)C(C)(C)C (stereo partly drawn) ?
a: -1

q: What call does the record list for `O=C(CSc1nc(-c2ccccc2)c(-c2ccccc2)[nH]1)N/N=C/c1ccc([N+](=O)[O-])cc1` ?
a: -1

q: What call does the record list for `O=C1ON=C2C3CC4CC12CC1(C3)C(=O)ON=C41` ?
a: -1

q: What call does the record list for Cc1ccc(S(=O)OC2c3ccccc3Cc3ccccc32)cc1 (stereo not drawn) ?
a: -1

q: What call does the record list for O[C@]12C=C(c3nccc4c3[nH]c3ccccc34)[C@@H]3CCN(CCCC/C=C\CC1)C[C@@]31CC3/C=C\CCCCN3[C@H]12 (stereo partly drawn) ?
a: 1

q: What call does the record list for `Cc1ccc(/N=N/c2c(O)c(C(=O)O)cc3ccccc23)c(S(=O)(=O)O)c1` ?
a: -1

q: What call does the record list for `CC1=C(O)C(=O)[C@@H]2O[C@@H]2C1=O` ?
a: -1

q: What call does the record list for O=C1CC(C(O)CO)CC(=O)N1 (stereo not drawn) ?
a: -1

q: What call does the record list for `Nc1nc(SCC(=O)O)nc(O)c1N` ?
a: -1

q: What call does the record list for `CC1=C(C(=O)Nc2ccccc2)C2(CCCCC2)C(C#N)=C(SCC(=O)Nc2ccc(Br)cc2)N1` ?
a: -1

q: What call does the record list for CCN(CC)CCC(=O)NC1c2ccc(Cl)cc2Oc2c(C)cccc21 (stereo not drawn) ?
a: -1

q: What call does the record list for COC(=O)NN1C(C)=C(C(=O)OC)C2(C#N)C(C(=O)OC)=C(C)N(NC(=O)OC)C12N (stereo not drawn) ?
a: -1

q: What call does the record list for CCN1CCC(O)(/C=C/c2ccc(Cl)cc2)C(C(=O)/C=C/c2ccc(Cl)cc2)C1 (stereo not drawn) ?
a: -1

q: What call does the record list for `CCOC(=O)/C=C/CC(C)(C)COC(C)=O` ?
a: -1

q: What call does the record list for COC(=O)C(=O)C(C(=O)C(=O)Nc1ccc(C)c(C)c1)c1nc2ccc([N+](=O)[O-])cc2nc1O (stereo not drawn) ?
a: -1

q: What call does the record list for Cc1ccc(C)c(C2NC(=O)c3ccccc3N2)c1 (stereo not drawn) ?
a: -1

q: What call does the record list for `CN(C)c1ccc(/C=C/C(=O)O)cc1` ?
a: -1

q: What call does the record list for OCC1OC(c2nc(C3=NCCCN3)cs2)C(O)C1O (stereo not drawn) ?
a: -1

q: What call does the record list for `CCOc1c(Cc2ccccc2)c(=O)n2c3ccccc3n3c(=O)n(C)c(=O)c1c23` ?
a: -1

q: What call does the record list for `CCOC(=O)Oc1ccc2c(c1)c(=O)c1c(NCCN(CC)CC)ccc3nnn2c31` ?
a: 1

q: What call does the record list for `COc1cc2c(cc1OC)C(Cc1ccccc1CCCl)=NCC2` ?
a: -1

q: What call does the record list for Cc1c(-c2ccc(-c3ccccc3F)cc2)nc2ccc(F)cc2c1C(=O)O [BREQUINAR SODIUM] ?
a: -1

q: What call does the record list for COC1OC2COC(c3ccccc3)OC2C(O)C1OC(=S)c1ccccc1 (stereo not drawn) ?
a: -1
